Below: a set of entries, each annotated with reported kon.
# TARGET_OF_ASSAY: T1, human IL-23 (human, UniProt Q9NPF7 20-189; P29460 23-328)
# T1 construct: Bought recombinant heterodimeric cytokine (eBioscience 34-8239-85 for panning; R&D Systems for the splenocyte assay); also called hIL-23; hIL23
# T1 sequence (looked up) 1: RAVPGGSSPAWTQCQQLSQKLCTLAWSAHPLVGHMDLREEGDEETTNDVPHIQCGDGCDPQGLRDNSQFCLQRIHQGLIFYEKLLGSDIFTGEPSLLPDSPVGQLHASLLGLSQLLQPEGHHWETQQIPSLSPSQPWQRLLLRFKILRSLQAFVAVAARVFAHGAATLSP
# T1 sequence (looked up) 2: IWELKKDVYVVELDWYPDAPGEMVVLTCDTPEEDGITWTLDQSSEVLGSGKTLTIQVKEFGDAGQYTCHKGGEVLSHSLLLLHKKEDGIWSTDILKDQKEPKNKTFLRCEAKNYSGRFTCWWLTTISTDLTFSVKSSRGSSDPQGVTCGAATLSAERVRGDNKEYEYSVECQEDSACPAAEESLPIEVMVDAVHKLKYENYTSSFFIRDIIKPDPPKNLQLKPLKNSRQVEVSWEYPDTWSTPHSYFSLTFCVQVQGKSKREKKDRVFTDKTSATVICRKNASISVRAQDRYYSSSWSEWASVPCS
# TEST: kinetic ELISA, soluble polypeptide
Kindly provide the numeric value in M⁻¹ s⁻¹ only, without the unit symbol.

BINDER	kon, M⁻¹ s⁻¹
MB76 (designed binder) MSIQQIQKEITQIQEVIAAIQKYIYRMTGGSGGSDGMSIEEIQKQIAAIQCQIAAIQKQIYAMTGSGGGGSGMSIEEIQKQIAAIQGQILAIYKQIMAMSL	250000

Now, please, on to the next binder.
Item: Cl59 (designed binder, Non-matured Alphabody from the AC11 library, tested as soluble recombinant protein; also called Clone 59; C159) MSIEEIQKQIASIQEVIAGIQKWIYMMTGGSGGSGGMSIEEIQKQIAAIQKQIAAIQKQIYAMTGGSGGGGSGMSIEEIQKQITAIKEQIIAIYKQIMAMTP | kon: 100000
